Answer each item with its documented T/C.
Test system: L1210 leukemia ip in BDF1 mice, survival T/C
Experiment: NCI In Vivo Anticancer Drug Screen. Data for tumor model L1210 Leukemia (intraperitoneal) in B6D2F1 (BDF1) mice
Details: endpoint: mean survival time; dose: 100.0 mg/kg/injection; schedule: Q01DX001 (ip); vehicle: water; higher = longer survival
Inconclusive results and toxic doses are left out.

Query: Item under review: NC(=O)NC(=O)c1nccnc1C(=O)O . Reported T/C?
Result: 88 % of control

Query: Item under review: O=CNO . Reported T/C?
Result: 110 % of control

Query: Item under review: NC(Cc1ccc(Cl)cc1)C(=O)O (centres undefined) . Reported T/C?
Result: 98 % of control

Query: Item under review: CCC(/C=C/C(C)C1CCC2C3CC=C4CC(O)CCC4(C)C3CCC12C)C(C)C (centres undefined) (tested in a mixture with another compound) . Reported T/C?
Result: 98 % of control
